This listing pairs compounds with measured Percent Control.
System: AURKC;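 also: KINOMEscan scanMAX binding as percent activity remaining versus control; lower means stronger binding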
Conditions: Compound Concentration (nM):1000

[
  {
    "compound": "CCc1ccc(Oc2nccc(-c3c(-c4ccc(F)cc4)ncn3C3CCNCC3)n2)cc1 [SB-242719]",
    "Percent Control / %": 98
  },
  {
    "compound": "Cl.c1ccc(Cc2nc3ccc(Nc4ncnc5ccccc45)cc3[nH]2)cc1 [GR269666A]",
    "Percent Control / %": 100
  },
  {
    "compound": "O=C(Nc1n[nH]c2nc(-c3ccc(O)cc3)c(Br)cc12)C1CC1 [SB-725317]",
    "Percent Control / %": 59
  },
  {
    "compound": "CCS(=O)(=O)c1ccc(OC)c(Nc2ncc(-c3cccc(F)c3)o2)c1 [GW621970X]",
    "Percent Control / %": 100
  },
  {
    "compound": "COc1cc(N2CCN(C(C)C)CC2)ccc1Nc1nc(Nc2ccc(F)cc2C(=O)NC[C@@H](O)CO)c2cc[nH]c2n1 [GSK1392956A]",
    "Percent Control / %": 90
  },
  {
    "compound": "CN(C)c1cc2c(Nc3ccc4c(cnn4Cc4ccccc4)c3)ncnc2cn1 [GW282974X]",
    "Percent Control / %": 92
  }
]
